Data origin, for the record: paper PMC12396409

Test system: P. falciparum 3D7 parasites
procedure.text: P. falciparum growth inhibition assay, 1-cycle (72 h treatment), SYBR DNA staining (library screen at 2 μg/mL and dose-response)
Format: cell-based, Plasmodium falciparum
assay.setup: P. falciparum 3D7, 72 h, parasite screen at 2 μg/mL, % growth, replicate 1
reported.endpoint: Pf_72h_%Growth_Rep1 (%)
Use % as the unit, but write only the number.

Ask: What value of Pf_72h_%Growth_Rep1 has been recorded for this entry: CN(C)[C@@H]1C(=O)C(C(=O)NCN2CCN(CCO)CC2)=C(O)[C@@]2(O)C(=O)C3=C(O)c4c(O)cccc4[C@@](C)(O)[C@H]3C[C@@H]12
Reply: 83.77

Ask: What value of Pf_72h_%Growth_Rep1 has been recorded for this entry: C[C@@H]1Cc2ccc(C(=O)N[C@@H](Cc3ccccc3)C(=O)O)c(O)c2C(=O)O1
Reply: 83.68

Ask: What value of Pf_72h_%Growth_Rep1 has been recorded for this entry: CC(=O)OCC12CC(O)C(C)=CC1OC1C(O)C(OC(C)=O)C2(C)C12CO2 (centres unmarked)
Reply: 6.76

Ask: What value of Pf_72h_%Growth_Rep1 has been recorded for this entry: CCC1OC2(CCC1C)CC1CC(CC=C(C)CC(C)C=CC=C3COC4C(=NO)C(C)=CC(C(=O)O1)C34O)O2 (centres unmarked)
Reply: 26.87

Ask: What value of Pf_72h_%Growth_Rep1 has been recorded for this entry: CC=C(C)C(O)C(C)C=C(C)C=CCC(C)=CCc1nc(OC)c(OC)c(O)c1C (centres unmarked)
Reply: 80.36

Ask: What value of Pf_72h_%Growth_Rep1 has been recorded for this entry: O=c1cc([O-])c1=O.[Na+]
Reply: 85.51

Ask: What value of Pf_72h_%Growth_Rep1 has been recorded for this entry: COc1c(C)c2c(c(O)c1C/C=C(\C)CCC(=O)O)C(=O)OC2
Reply: 27.32

Ask: What value of Pf_72h_%Growth_Rep1 has been recorded for this entry: CN(C)c1ccc(O)c2c1C[C@H]1C[C@H]3[C@H](N(C)C)C(O)=C(C(N)=O)C(=O)[C@@]3(O)C(O)=C1C2=O.Cl
Reply: 19.15

* * *

Test system: T. gondii RH strain (RH-Tub-eYFP) tachyzoites
procedure.text: microbe, parasite or virus in culture
Type: cell-based, Toxoplasma gondii
assay.setup: T. gondii, 72 h, 2 μg/mL; values are growth (% of control)
reported.endpoint: Replicate 1

Worked examples follow.
molecule: CN1CC[C@]2(c3cccc4c3N[C@H]3N(C)CC[C@@]43[C@]34CCN(C)[C@H]3Nc3ccccc34)c3ccccc3N[C@H]12 [Hodgkinsine B]
observed.measurement: 8.86
//
molecule: Cc1cc2nc3c(=O)[nH]c(=O)nc-3n(C[C@H](O)[C@H](O)[C@H](O)CO)c2cc1N(C)C [Roseoflavin]
observed.measurement: 40.04
//
molecule: CCCC(=O)O[C@H]1[C@H](C)O[C@@H](O[C@H]2[C@H](N(C)C)[C@@H](O)[C@H](O[C@H]3[C@@H](CC=O)C[C@@H](C)[C@@H](O)/C=C/C=C/C[C@@H](C)OC(=O)C[C@@H](OC(C)=O)[C@@H]3OC)O[C@@H]2C)C[C@@]1(C)O [Leucomycin A4]
observed.measurement: 19.43
//
molecule: CN1CCC2(c3cccc4c3NC3N(C)CCC43c3cccc4c3NC3N(C)CCC43C34CCN(C)C3Nc3c(C56CCN(C)C5Nc5ccccc56)cccc34)c3ccccc3NC12 (centres unmarked) [Psychotridine]
observed.measurement: 17.15

Ask: What value of Replicate 1 has been recorded for this entry: COc1cc2c(oc(=O)c3cc(C)cc(OC)c32)c2c([C@@H]3O[C@H](C)[C@H](O)[C@@](C)(O)[C@H]3O)ccc(O)c12 [Chrysomycin B]
Reply: 25.01

* * *

System: P. falciparum 3D7 parasites
procedure.text: P. falciparum growth inhibition assay, 2-cycle (120 h treatment), delayed-death screen and dose-response
Format: cell-based, Plasmodium falciparum
assay.setup: Plasmodium falciparum, 3D7; library screen at 2 μg/mL, 120 h, % growth, replicate 2; read-out: Pf_120h_%Growth_Rep2
activity at 2 µg/mL for assorted compounds
Use % as the unit, but write only the number.

Worked examples follow.
compound: CC[C@]1(C)C[C@@H](OC(=O)CSc2nnc(N)[nH]2)[C@]2(C)[C@H](C)CC[C@]3(CCC(=O)[C@H]32)[C@@H](C)[C@@H]1O [Azamulin]
tested.system: P. falciparum 3D7 parasites
activity at 2 µg/mL [%]: 2.17
--
compound: C/C(=C\c1csc(C)n1)[C@@H]1C[C@@H]2O[C@]2(C)CCC[C@H](C)[C@H](O)[C@@H](C)C(=O)C(C)(C)[C@@H](O)CC(=O)O1 [Epothilone B]
tested.system: P. falciparum 3D7 parasites
activity at 2 µg/mL [%]: 3.63
--
compound: C[C@@H](O)[C@H]1C(=O)N2C(C(=O)[O-])=C(SC3Cn4cnc[n+]4C3)[C@H](C)[C@H]12 (stereo partly shown) [Biapenem]
tested.system: P. falciparum 3D7 parasites
activity at 2 µg/mL [%]: 79.2

Ask: What value of activity at 2 µg/mL has been recorded for this entry: C=C1CC[C@H]2C(C)(C)CCC[C@]2(C)[C@H]1C[C@@]12C[C@H]3C(=O)N4CCC[C@H]4C(=O)N3[C@@H]1Nc1ccccc12 [Drimentine C]
Reply: 103

Ask: What value of activity at 2 µg/mL has been recorded for this entry: C[C@H]1C(=O)N2c3ccccc3[C@@]3(O)C[C@@H]4C(=O)N[C@](C)(c5nc6ccccc6c(=O)n54)N1[C@@H]23 [Fumiquinazoline D]
Reply: 101

Ask: What value of activity at 2 µg/mL has been recorded for this entry: Cc1cc(O)cc2oc(=O)c3c(O)cc(O)cc3c12 [Alternariol]
Reply: 90.2

Ask: What value of activity at 2 µg/mL has been recorded for this entry: C[C@@H](O)[C@H]1C(=O)N2C(C(=O)O)=C(S[C@@H]3CN[C@H](CNS(N)(=O)=O)C3)[C@H](C)[C@H]12 [Doripenem]
Reply: 121

* * *

activity at 2 µg/mL for assorted compounds
Test system: P. falciparum 3D7 parasites
procedure.text: P. falciparum growth inhibition assay, 1-cycle (72 h treatment), SYBR DNA staining (library screen at 2 μg/mL and dose-response)
Assay type: cell-based, Plasmodium falciparum
assay.setup: Plasmodium falciparum, 3D7; library screen at 2 μg/mL, 72 h, % growth, replicate 2; read-out: Pf_72h_%Growth_Rep2
Where a SMILES comes first, the peptide text is derived from it. Bridges are numbered along the chain shown (N, C = ends). [ ]: non-standard residue; d: D form. The star is where a group is joined. Ileψ(thiazoline)Cys = CC[C@H](C)[C@H](N)C1=N[C@H](C(=O)*)CS1; dOrn = NCCC[C@@H](N)C(=O)O
Use % as the unit, but write only the number.

compound: CC[C@H](C)[C@H](N)C1=N[C@H](C(=O)N[C@@H](CC(C)C)C(=O)N[C@H](CCC(=O)O)C(=O)N[C@H](C(=O)N[C@H]2CCCCNC(=O)[C@H](CC(N)=O)NC(=O)[C@@H](CC(=O)O)NC(=O)[C@H](Cc3cnc[nH]3)NC(=O)[C@@H](Cc3ccccc3)NC(=O)[C@H]([C@@H](C)CC)NC(=O)[C@@H](CCCN)NC2=O)[C@@H](C)CC)CS1 [Bacitracin A] ({Ileψ(thiazoline)Cys}-L[dE]IK[dOrn]I[dF]H[dD]N; lactam 4-C)
unit.of.measurement: %
activity at 2 µg/mL: 89.3

Ask: What value of activity at 2 µg/mL has been recorded for this entry: O=C(N[C@H](COC(=O)[C@H](Cc1ccccc1)NC(=O)c1ccccc1)Cc1ccccc1)c1ccccc1 [Asperphenamate]
Reply: 83.3

Ask: What value of activity at 2 µg/mL has been recorded for this entry: O=c1c(-c2ccc(O)cc2)coc2cc(O)cc(O)c12
Reply: 42.1

Ask: What value of activity at 2 µg/mL has been recorded for this entry: CO[C@H]1C[C@@H]2CC[C@@H](C)[C@@](O)(O2)C(=O)C(=O)N2CCCC[C@H]2C(=O)O[C@H]([C@H](C)C[C@@H]2CC[C@@H](OCCO)[C@H](OC)C2)CC(=O)[C@H](C)/C=C(\C)[C@@H](O)[C@@H](OC)C(=O)[C@H](C)C[C@H](C)/C=C/C=C/C=C/1C
Reply: 67.8

Ask: What value of activity at 2 µg/mL has been recorded for this entry: COC1=C2C[C@@H](C)C[C@H](OC)[C@H](O)[C@@H](C)/C=C(\C)[C@H](OC(N)=O)[C@@H](OC)/C=C\C=C(/C)C(=O)NC(=CC1=O)C2=O
Reply: 2.63

* * *

System: P. falciparum 3D7 parasites
procedure.text: P. falciparum growth inhibition assay, 1-cycle (72 h treatment), SYBR DNA staining (library screen at 2 μg/mL and dose-response)
Type: cell-based, Plasmodium falciparum
assay.setup: Plasmodium falciparum, 3D7; P. falciparum, 72 h, screen at 2 μg/mL, replicate 2; read-out: Pf_72h_%Growth_Rep2
activity at 2 µg/mL for assorted compounds
Use % as the unit, but write only the number.

Worked examples follow.
compound: C[C@@H]1C[C@H](C)C[C@H](C)[C@@H](O)CC(=O)O[C@H]([C@@H]2CCC[C@H]2C(=O)O)C/C=C/C=C(/C#N)[C@H](O)[C@@H](C)C1
tested.system: P. falciparum 3D7 parasites
unit.of.measurement: %
observed.measurement: -1.49
//
compound: CS(=O)(=O)c1ccc([C@@H](O)[C@@H](CO)NC(=O)C(Cl)Cl)cc1 [Thiamphenicol, reference compound]
tested.system: P. falciparum 3D7 parasites
unit.of.measurement: %
observed.measurement: 61.4
//
compound: C=C(NC(=O)C(=C)NC(=O)c1csc(C2=N[C@@H]3c4csc(n4)[C@H]4NC(=O)c5csc(n5)[C@H]([C@](C)(O)[C@@H](C)O)NC(=O)[C@H]5CSC(=N5)/C(=C/C)NC(=O)[C@H]([C@@H](C)O)NC(=O)c5csc(n5)[C@]3(CC2)NC(=O)[C@H](C)NC(=O)C(=C)NC(=O)[C@H](C)NC(=O)[C@H]([C@@H](C)CC)N[C@@H]2C=Cc3c([C@H](C)O)cc(nc3[C@H]2O)C(=O)O[C@@H]4C)n1)C(N)=O [thiostrepton, reference compound]
tested.system: P. falciparum 3D7 parasites
unit.of.measurement: %
observed.measurement: 65.2

Note: attention shifts to another entry.
Ask: What value of activity at 2 µg/mL has been recorded for this entry: CCCCCCCCCC(=O)N[C@@H](Cc1c[nH]c2ccccc12)C(=O)N[C@H](CC(N)=O)C(=O)N[C@@H](CC(=O)O)C(=O)N[C@@H]1C(=O)NCC(=O)N[C@@H](CCCN)C(=O)N[C@@H](CC(=O)O)C(=O)N[C@H](C)C(=O)N[C@@H](CC(=O)O)C(=O)NCC(=O)N[C@H](CO)C(=O)N[C@@H]([C@H](C)CC(=O)O)C(=O)N[C@@H](CC(=O)c2ccccc2N)C(=O)O[C@@H]1C
Reply: 114
